# test parameters: 298.15 K; 101.33 kPa; Liquid

>  <molecule>
CCCC[n+]1ccc(C)cc1.F[B-](F)(F)F [1-butyl-4-methylpyridinium tetrafluoroborate]

>  <viscosity (mPa·s)>
202.86

$$$$
>  <molecule>
CCn1cc[n+](C)c1.COS(=O)(=O)[O-] [1-ethyl-3-methylimidazolium methylsulfate]

>  <viscosity (mPa·s)>
94.91

$$$$
>  <molecule>
CCCCn1cc[n+](C)c1.F[P-](F)(F)(F)(F)F [1-butyl-3-methylimidazolium hexafluorophosphate]

>  <viscosity (mPa·s)>
273.94

$$$$
>  <molecule>
CCCCCCn1cc[n+](C)c1.F[P-](F)(F)(F)(F)F [1-hexyl-3-methylimidazolium hexafluorophosphate]

>  <viscosity (mPa·s)>
349.17

$$$$

====

# test parameters: 308.15 K; 101.33 kPa; Liquid; Vibrating tube method
readout kind: mass density (kg/m3)

>  <compound>
CCCC[n+]1ccc(C)cc1.F[B-](F)(F)F [1-butyl-4-methylpyridinium tetrafluoroborate]

>  <readout kind>
mass density

>  <observed result>
1183

$$$$
>  <compound>
COS(=O)(=O)[O-].Cn1cc[n+](C)c1 [1,3-dimethylimidazolium methylsulfate]

>  <readout kind>
mass density

>  <observed result>
1319

$$$$
>  <compound>
CC(C)C[P+](C)(CC(C)C)CC(C)C.Cc1ccc(S(=O)(=O)[O-])cc1 [triisobutylmethylphosphonium p-toluenesulfonate]

>  <readout kind>
mass density

>  <observed result>
1062

$$$$
>  <compound>
CCCCCCCC[n+]1ccn(C)c1.F[P-](F)(F)(F)(F)F [1-octyl-3-methylimidazolium hexafluorophosphate]

>  <readout kind>
mass density

>  <observed result>
1226

$$$$
>  <compound>
CCCCn1cc[n+](C)c1.O=S(=O)([O-])O [1-butyl-3-methylimidazolium hydrogen sulfate]

>  <readout kind>
mass density

>  <observed result>
1217

$$$$
>  <compound>
CCCCCCCC[n+]1ccn(C)c1.[Cl-] [1-methyl-3-octylimidazolium chloride]

>  <readout kind>
mass density

>  <observed result>
1004

$$$$
>  <compound>
CCCCCCn1cc[n+](C)c1.F[P-](F)(F)(F)(F)F [1-hexyl-3-methylimidazolium hexafluorophosphate]

>  <readout kind>
mass density

>  <observed result>
1284

$$$$
>  <compound>
CCn1cc[n+](C)c1.COS(=O)(=O)[O-] [1-ethyl-3-methylimidazolium methylsulfate]

>  <readout kind>
mass density

>  <observed result>
1285

$$$$
>  <compound>
CCCCn1cc[n+](C)c1.F[P-](F)(F)(F)(F)F [1-butyl-3-methylimidazolium hexafluorophosphate]

>  <readout kind>
mass density

>  <observed result>
1359

$$$$

====

# test parameters: 298.15 K; 101.33 kPa; Liquid; Vibrating tube method
readout kind: mass density (kg/m3)

>  <molecule>
CCn1cc[n+](C)c1.COS(=O)(=O)[O-] [1-ethyl-3-methylimidazolium methylsulfate]

>  <observed result>
1292

$$$$
>  <molecule>
CCCCCCCC[n+]1ccn(C)c1.[Cl-] [1-methyl-3-octylimidazolium chloride]

>  <observed result>
1010

$$$$
>  <molecule>
CC(C)C[P+](C)(CC(C)C)CC(C)C.Cc1ccc(S(=O)(=O)[O-])cc1 [triisobutylmethylphosphonium p-toluenesulfonate]

>  <observed result>
1068

$$$$

====

# measurement notes: refractive index (Na D-line) (dimensionless)
# test parameters: 298.15 K; 101.33 kPa; Liquid; Standard Abbe refractometry

>  <compound>
CCCCCCn1cc[n+](C)c1.F[P-](F)(F)(F)(F)F [1-hexyl-3-methylimidazolium hexafluorophosphate]

>  <refractive index>
1.4179

$$$$
>  <compound>
CCCCn1cc[n+](C)c1.F[P-](F)(F)(F)(F)F [1-butyl-3-methylimidazolium hexafluorophosphate]

>  <refractive index>
1.4101

$$$$
>  <compound>
COS(=O)(=O)[O-].Cn1cc[n+](C)c1 [1,3-dimethylimidazolium methylsulfate]

>  <refractive index>
1.4817

$$$$
>  <compound>
CCCCCCCC[n+]1ccn(C)c1.[Cl-] [1-methyl-3-octylimidazolium chloride]

>  <refractive index>
1.5088

$$$$
